Target: CD64 (FcgRI) (Homo sapiens, UniProt P12314)
Sequence (P12314 16-374): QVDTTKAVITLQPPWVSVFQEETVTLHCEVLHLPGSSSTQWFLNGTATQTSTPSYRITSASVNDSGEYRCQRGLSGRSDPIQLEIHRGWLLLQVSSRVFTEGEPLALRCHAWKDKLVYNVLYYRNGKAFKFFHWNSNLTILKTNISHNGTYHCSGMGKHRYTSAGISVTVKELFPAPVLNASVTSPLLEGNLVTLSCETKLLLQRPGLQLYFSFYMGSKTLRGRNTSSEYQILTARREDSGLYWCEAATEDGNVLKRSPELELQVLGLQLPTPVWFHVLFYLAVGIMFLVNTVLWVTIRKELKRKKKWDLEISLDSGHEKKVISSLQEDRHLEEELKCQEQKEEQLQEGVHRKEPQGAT
Experiment: SPR, antibody binding to anti-his Fab captured FcgR-his (% Rmax)
Conditions: 1 μM antibody
Reported % Rmax hCD64 values for a set of molecules

# Molecule, % Rmax hCD64 [%]
data = [
    ("mAb10-IgG2.5 (protein, left off: another chain or arm of the molecule) constant: ASTKGPSVFPLAPSSRSTSESTAALGCLVKDYFPEPVTVSWNSGALTSGVHTFPAVLQSSGLYSLSSVVTVPSSNFGTQTYTCNVDHKPSNTKVDKTVERKCCVECPPCPAPPVAGPSVFLFPPKPKDTLMISRTPEVTCVVVDVSHEDPEVQFNWYVDGVEVHNAKTKPREEQFNSTFRVVSVLTVVHQDWLNGKEYKCKVSNKGLPAPIEKTISKTKGQPREPQVYTLPPSREEMTKNQVSLTCLVKGFYPSDIAVEWESNGQPENNYKTTPPMLDSDGSFFLYSKLTVDKSRWQQGNVFSCSVMHEALHNHYTQKSLSLSPGK", 1),
    ("mAb8-IgG2.5G1-AY-V27 (protein, left off: another chain or arm of the molecule) constant: ASTKGPSVFPLAPSSRSTSESTAALGCLVKDYFPEPVTVSWNSGALTSGVHTFPAVLQSSGLYSLSSVVTVPSSNFGTQTYTCNVDHKPSNTKVDKTVERKCCVECPPCPAPELLGGPSVFLFPPKPKDTLMISRTPEVTCVVVDVEHEDPEVKFNWYVDGVEVHNAKTKPREEQYNSTYRVVSVLTVLHQDWLNGKEYKCKVSNKALPAPIEKTISKAKGQPREPQVYTLPPSREEMTKNQVSLTCLVKGFYPSDIAVEWESNGQPENNYKTTPPVLDSDGSFFLYSKLTVDKSRWQQGNVFSCSVMHEALHNHYTQKSLSLSPGK", 77),
]
